# Tested on: P. aeruginosa
# particulars: 24 h
Positions of bridges follow the written chain, without caps; N, C: chain ends. Non-standard residues stand in square brackets, D forms with d. Residues, ends and D or L forms follow the SMILES beside them. R8 = C=CCCCCCC[C@@](C)(N)C(=O)O; S5 = C=CCCC[C@](C)(N)C(=O)O
List of MIC P. aeruginosa values.
Record the value in µg/mL, omitting the unit from your answer.

# example entries with known answers
CC[C@H](C)[C@@H]1NC(=O)[C@H](CCCNC(=N)N)NC(=O)[C@](C)(NC(=O)[C@@H](NC(=O)[C@@H](NC(=O)[C@H](CCCNC(=N)N)NC(=O)[C@H](CCCCN)NC(C)=O)[C@@H](C)CC)C(C)C)CCCCCCC=CCCC[C@@](C)(C(N)=O)NC(=O)[C@H](CC(C)C)NC(=O)[C@H](Cc2ccccc2)NC(=O)[C@H](CC(=O)O)NC(=O)[C@H](CCCCN)NC1=O [KR-12 (Q5, R12)] (Ac-KRIV[R8]RIKDFL[S5]-NH2; staple 5-12) :: 64
CC[C@H](C)[C@@H]1NC(=O)[C@H](CCCNC(=N)N)NC(=O)[C@H](CCC(N)=O)NC(=O)[C@](C)(NC(=O)[C@@H](NC(=O)[C@H](CCCNC(=N)N)NC(=O)[C@H](CCCCN)NC(C)=O)[C@@H](C)CC)CCCCCCC=CCCC[C@@](C)(C(=O)N[C@@H](CCCNC(=N)N)C(N)=O)NC(=O)[C@H](Cc2ccccc2)NC(=O)[C@H](CC(=O)O)NC(=O)[C@H](CCCCN)NC1=O [KR-12 (V4, L11)] (Ac-KRI[R8]QRIKDF[S5]R-NH2; staple 4-11) :: 128
CC[C@H](C)[C@@H]1NC(=O)[C@H](CCCNC(=N)N)NC(=O)[C@H](CCC(N)=O)NC(=O)[C@H](C(C)C)NC(=O)[C@H]([C@@H](C)CC)NC(=O)[C@](C)(NC(=O)[C@H](CCCCN)NC(C)=O)CCCCCCC=CCCC[C@@](C)(C(=O)N[C@@H](Cc2ccccc2)C(=O)N[C@@H](CC(C)C)C(=O)N[C@@H](CCCNC(=N)N)C(N)=O)NC(=O)[C@H](CCCCN)NC1=O [KR-12 (R2, D9)] (Ac-K[R8]IVQRIK[S5]FLR-NH2; staple 2-9) :: 256
CC[C@H](C)[C@@H]1NC(=O)[C@H](CCCNC(=N)N)NC(=O)[C@H](CCC(N)=O)NC(=O)[C@H](C(C)C)NC(=O)[C@](C)(NC(=O)[C@H](CCCNC(=N)N)NC(=O)[C@H](CCCCN)NC(C)=O)CCCCCCC=CCCC[C@@](C)(C(=O)N[C@@H](CC(C)C)C(=O)N[C@@H](CCCNC(=N)N)C(N)=O)NC(=O)[C@H](CC(=O)O)NC(=O)[C@H](CCCCN)NC1=O [KR-12 (I3, F10)] (Ac-KR[R8]VQRIKD[S5]LR-NH2; staple 3-10) :: 128
CC(=O)N[C@@H](CCCCN)C(=O)N[C@@H](CCCNC(=N)N)C(=O)N[C@@]1(C)CCCC=CCCC[C@@](C)(C(=O)N[C@@H](CCCCN)C(=O)N[C@@H](CC(=O)O)C(=O)N[C@@H](Cc2ccccc2)C(=O)N[C@@H](CC(C)C)C(=O)N[C@@H](CCCNC(=N)N)C(N)=O)NC(=O)[C@H](CCCNC(=N)N)NC(=O)[C@H](CCC(N)=O)NC(=O)[C@H](C(C)C)NC1=O [KR-12 (I3, I7)] (Ac-KR[S5]VQR[S5]KDFLR-NH2; staple 3-7) :: 256

Ask: What MIC P. aeruginosa value was documented for this compound, CC[C@H](C)[C@H](NC(=O)[C@H](CCCNC(=N)N)NC(=O)[C@H](CCCCN)NC(C)=O)C(=O)N[C@H](C(=O)N[C@@H](CCC(N)=O)C(=O)N[C@@H](CCCNC(=N)N)C(=O)N[C@@]1(C)CCCC=CCCC[C@@](C)(C(=O)N[C@@H](CCCNC(=N)N)C(N)=O)NC(=O)[C@H](Cc2ccccc2)NC(=O)[C@H](CC(=O)O)NC(=O)[C@H](CCCCN)NC1=O)C(C)C [KR-12 (I7, L11)] (Ac-KRIVQR[S5]KDF[S5]R-NH2; staple 7-11) ?
Result: 256

Ask: What MIC P. aeruginosa value was documented for this compound, CC[C@H](C)[C@@H]1NC(=O)[C@H](CCCNC(=N)N)NC(=O)[C@@](C)(NC(=O)[C@@H](NC(=O)[C@@H](NC(=O)[C@H](CCCNC(=N)N)NC(=O)[C@H](CCCCN)NC(C)=O)[C@@H](C)CC)C(C)C)CCCC=CCCC[C@@](C)(C(=O)N[C@@H](Cc2ccccc2)C(=O)N[C@@H](CC(C)C)C(=O)N[C@@H](CCCNC(=N)N)C(N)=O)NC(=O)[C@H](CCCCN)NC1=O [KR-12 (Q5, D9)] (Ac-KRIV[S5]RIK[S5]FLR-NH2; staple 5-9) ?
Result: 64
